Tested on: Bacillus subtilis
assay summary: Antimicrobial activity against Bacillus subtilis after 24 hrs by broth microdilution method
Assay type: functional

# compound, tested on, MIC
data = [
    ("Cc1nnc2c3ccccc3c(N3CC(C)CC(C)C3)nn12 (stereo not drawn)", "Bacillus subtilis", "64 µg/mL"),
    ("COc1ccc(Nc2nn3cnnc3c3ccccc23)cc1", "Bacillus subtilis", "> 128 µg/mL"),
    ("Fc1ccc(Nc2nn3cnnc3c3ccccc23)cc1", "Bacillus subtilis", "> 128 µg/mL"),
    ("Cc1ccc(Nc2nn3cnnc3c3ccccc23)cc1", "Bacillus subtilis", "> 128 µg/mL"),
    ("Cc1ccc(Nc2nn3c(-c4ccccc4)nnc3c3ccccc23)cc1", "Bacillus subtilis", "> 128 µg/mL"),
    ("Cc1ccc(Nc2nn3c(C)nnc3c3ccccc23)cc1", "Bacillus subtilis", "> 128 µg/mL"),
    ("COc1ccc(Nc2nn3c(C)nnc3c3ccccc23)cc1", "Bacillus subtilis", "> 128 µg/mL"),
    ("c1ccc(-c2nnc3c4ccccc4c(N4CCNCC4)nn23)cc1", "Bacillus subtilis", "64 µg/mL"),
    ("Fc1ccc(Nc2nn3c(-c4ccccc4)nnc3c3ccccc23)cc1", "Bacillus subtilis", "> 128 µg/mL"),
    ("Clc1ccc(Nc2nn3cnnc3c3ccccc23)cc1", "Bacillus subtilis", "> 128 µg/mL"),
    ("c1ccc2c(c1)c(N1CCNCC1)nn1cnnc21", "Bacillus subtilis", "> 128 µg/mL"),
    ("C[C@H]1COc2c(N3CCN(C)CC3)c(F)cc3c(=O)c(C(=O)O)cn1c23.C[C@H]1COc2c(N3CCN(C)CC3)c(F)cc3c(=O)c(C(=O)O)cn1c23.O", "Bacillus subtilis", "1 µg/mL"),
    ("Cc1nnc2c3ccccc3c(Nc3ccccc3Cl)nn12", "Bacillus subtilis", "> 128 µg/mL"),
]

These data points were gathered from ChEMBL document CHEMBL3112433.
